# protocol-details: Chemical stability of compound in DMSO at 25 degree C measured after 7 days by NMR analysis
# Assay type: physicochemical
# study-conditions: read-out: Stability
assay-readout: remaining at 168 h (%)
Answer in %, number only, no unit symbol.

# input So what's the measured remaining at 168 h for this one? CCCC1C(C(=O)Nc2cc(Cl)ccc2Cl)=C(C)NC2=C1C(=O)CCC2 (stereo unspecified)
# output 100

---

# target-or-system: Free fatty acid receptor 3 (Homo sapiens, UniProt O14843)
# Sequence (O14843 whole entry): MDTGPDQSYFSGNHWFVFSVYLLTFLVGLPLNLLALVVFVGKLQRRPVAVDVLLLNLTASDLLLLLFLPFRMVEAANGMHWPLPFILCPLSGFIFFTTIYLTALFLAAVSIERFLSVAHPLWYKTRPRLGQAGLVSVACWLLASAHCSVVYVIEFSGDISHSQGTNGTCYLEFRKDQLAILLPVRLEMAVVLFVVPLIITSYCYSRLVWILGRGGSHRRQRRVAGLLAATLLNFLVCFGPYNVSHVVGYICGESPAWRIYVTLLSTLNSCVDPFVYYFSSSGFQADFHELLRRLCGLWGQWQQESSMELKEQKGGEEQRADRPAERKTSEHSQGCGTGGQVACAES
# protocol-details: Positive allosteric modulation at human FFA3 receptor stably expressed in Flp-In T-Rex HEK293 cells cotransfected with eYFP assessed as inhibition of forskolin-induced cAMP production measured after 1 hr in presence of 1 uM propionate by fluorescence plate reader assay
# Format: functional, cell-based
assay-readout: EC50 (nM)
Answer in nM, number only, no unit symbol.

# input So what's the measured EC50 for this one? CC1=C(C(=O)Nc2ccccc2C)C(c2ccco2)C2=C(CCCC2=O)N1 (stereo unspecified)
# output 537

---

# target-or-system: Free fatty acid receptor 3 (Homo sapiens)
assay-readout: pEC50
The meaning of pEC50 here: minus log10 of the concentration in molar units.

# input Free fatty acid receptor 3 (Homo sapiens) / pEC50 / CCC(=O)O [PROPIONIC ACID] : value?
# output 4.93

---

# target-or-system: Free fatty acid receptor 4 (Homo sapiens)
# protocol-details: Agonist activity at human C-terminal eYFP tagged FFA4 receptor stably expressed in HEK293T cells cotransfected with nano-luciferase assessed as recruitment of beta-arrestin2 at 10 uM followed by TUG-891 addition prior to compound treatment by BRET assay
# Assay type: cell-based
The source made the active and inactive calls. The calls are words filed in the database; no cut-off is given here.
assay-readout: Activity

molecule	target-or-system	assay-readout	value-observed
CC1=C(C(=O)Nc2ccccc2C)C(c2ccco2)C2=C(CCCC2=O)N1 (centres undefined)	Free fatty acid receptor 4 (Homo sapiens)	Activity	inactive
CC1=C(C(=O)Nc2cc(Cl)ccc2Cl)C(c2ccco2)C2=C(CCCC2=O)N1 (centres undefined)	Free fatty acid receptor 4 (Homo sapiens)	Activity	inactive
CCCC1C(C(=O)Nc2cc(Cl)ccc2Cl)=C(C)NC2=C1C(=O)CCC2 (centres undefined)	Free fatty acid receptor 4 (Homo sapiens)	Activity	inactive
CC1=C(C(=O)Nc2cc(Cl)ccc2Cl)C(C2CCCC2)C2=C(CCCC2=O)N1 (centres undefined)	Free fatty acid receptor 4 (Homo sapiens)	Activity	inactive

---

# protocol-details: Chemical stability of compound in DMSO at 4 degree C measured after 30 days by NMR analysis
# Format: physicochemical
# study-conditions: read-out: Stability
assay-readout: remaining at 720 h (%)
Answer in %, number only, no unit symbol.

# input So what's the measured remaining at 720 h for this one? CCCC1C(C(=O)Nc2cc(Cl)ccc2Cl)=C(C)NC2=C1C(=O)CCC2 (stereo unspecified)
# output 100

Data provenance is ChEMBL document CHEMBL4402580.
